Assay Name: Solubility of Compound A in water and organic solvents
Assay type: physicochemical
Protocol Conditions: polyethylene glycol, organic solvent or mixture; room temperature; read-out: solubility in organic solvent: polyethylene glycol
Endpoint Label: solubility (µg/mL)
# value in µg/mL; strip the unit string

Input: Please give the documented solubility of COc1ccc(-c2nc(OC)nn2-c2ccc(OC)cc2)cc1 [Compound A]
Output: 6300

###

Assay Name: Solubility of Compound A in water and organic solvents
Type: physicochemical
Protocol Conditions: water; 37° C.; read-out: solubility in water
Endpoint Label: solubility (µg/mL)
Answer in µg/mL, number only, no unit symbol.

Input: Please give measured solubility of the following entry: COc1ccc(-c2nc(OC)nn2-c2ccc(OC)cc2)cc1 [Compound A]
Output: 10.7

###

Assay Name: Solubility of Compound A in water and organic solvents
Assay type: physicochemical
Protocol Conditions: acetone, organic solvent or mixture; room temperature; read-out: solubility in organic solvent: acetone
Endpoint Label: solubility (mg/mL)
Numbers only here, please. The scale is mg/mL.

Input: Report solubility for COc1ccc(-c2nc(OC)nn2-c2ccc(OC)cc2)cc1
Output: 82.2
